# method_summary: Hepatocyte metabolic stability test
# Type: in vitro ADME, Human
# test_conditions: hepatocyte suspension; Human; scaled with 120 × 10^6 cells/g liver and 21 g liver/kg; read-out: CLint, hepatic
endpoint: CLint scaled at 1 μM (mL/min/kg)

compound | endpoint | reading_unit | measured
COc1cccc(N2CCN(C3=Nc4c(F)cccc4[C@H](CC(=O)O)N3c3cc(C(F)(F)F)ccc3OC)C[C@H]2C)c1 [Compound I-25] | CLint scaled at 1 μM | mL/min/kg | 0.388
CCOc1ccc2ccc(=O)oc2c1 [7-ethoxycoumarin] | CLint scaled at 1 μM | mL/min/kg | 87.7
COc1cccc(N2CCN(C3=Nc4c(F)cccc4[C@H](CC(=O)O)N3c3cc(C(F)(F)F)ccc3OC)CC2)c1 [Letermovir, letermovir] | CLint scaled at 1 μM | mL/min/kg | 5.53
